# Test system: biotinyl-Ile-oxazolone
# Assay Protocol: self-aminoacylation, catalytic enhancement (BIO) (fold over background); higher = more active; k-Seq, kA / k0A0; sequences stand for … in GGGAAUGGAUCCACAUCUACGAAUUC…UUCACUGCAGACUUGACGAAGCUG
This sample holds only a part of the variants without activity.
Measurement Label: self-aminoacylation

INSERT INTO results (input_sequence, measurement_label, readout_number) VALUES
  ('AUUCACCUAGGUAAUCGGGUU [Fam2.2 aminoacylation ribozyme variant]', 'self-aminoacylation', 0.997),
  ('AAGGUUGCUAAUGGUCGCAAG [Fam3.1 aminoacylation ribozyme variant]', 'self-aminoacylation', 1.06),
  ('CGACACUUCAAGGAAUCGGUC [Fam1B.1 aminoacylation ribozyme variant]', 'self-aminoacylation', 2.39),
  ('AAUGACCUAGGUCAUCGGGUG [Fam2.2 aminoacylation ribozyme variant]', 'self-aminoacylation', 3.66),
  ('AAUCACCUAUGUCAUCGGGUG [Fam2.2 aminoacylation ribozyme variant]', 'self-aminoacylation', 3.28),
  ('AUUACCCUGUUCAUCGGGUGA [Fam2.1 aminoacylation ribozyme variant]', 'self-aminoacylation', 4.92),
  ('AUUUACCUCGGUCAUCGGGUG [Fam2.2 aminoacylation ribozyme variant]', 'self-aminoacylation', 4.06);

The origin of these recorded values is the supplement of paper PMC9233669.
